Biological target: T1, human Siglec-7 on primary human monocyte-derived dendritic cells (human, UniProt Q9Y286 19-467)
T1 construct: Endogenous Siglec-7 on dendritic cells differentiated from monocytes of healthy human donors
T1 sequence (Q9Y286 19-467): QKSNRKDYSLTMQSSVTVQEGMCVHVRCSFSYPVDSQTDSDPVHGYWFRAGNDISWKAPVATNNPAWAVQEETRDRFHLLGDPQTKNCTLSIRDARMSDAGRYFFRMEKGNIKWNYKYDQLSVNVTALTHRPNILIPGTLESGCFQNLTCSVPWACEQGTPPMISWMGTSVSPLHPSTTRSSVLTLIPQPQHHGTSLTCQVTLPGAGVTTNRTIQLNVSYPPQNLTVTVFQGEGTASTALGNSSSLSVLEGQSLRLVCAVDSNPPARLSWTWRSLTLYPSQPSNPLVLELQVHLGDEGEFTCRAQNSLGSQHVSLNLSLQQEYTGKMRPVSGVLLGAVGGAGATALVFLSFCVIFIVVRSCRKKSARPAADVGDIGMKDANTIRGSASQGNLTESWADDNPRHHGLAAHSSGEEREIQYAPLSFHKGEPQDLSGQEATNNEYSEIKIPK
Test: flow cytometry, primary human dendritic cells
In this section, each of the binders is paired with its reported EC50.
Lab book: enter the figure in nM, no units written.

>>> assay_result("S7AB-H3 (antibody, V domains shown) VH: QVQLVQSGAEVKKPGASVKVSCKASGYAFTNCWMNWVRQAPGQGLEWMGRIFPGNGHTNYAQKFQGRVTMTRDTSTSTVYMELSSLRSEDTAVYYCARDYSDYYFDYWGQGTLVTVSS VL: DVQMTQSPSSLSASVGDRVTITCRASQDINTYLNWYQQKPGKAPKLLIYYTSRLHSGVPSRFSGSGSGTDYTLTISSLQPEDFATYYCQQGNTLPWTFGQGTKLEIK")
1.6

We now examine a further binder.
// sample S7AB-H11 (antibody, V domains shown) VH: QVQLVQSGAEVKKPGASVKISCKASGYAFTNCWMNWVRQAPGQGLEWIGRIFPGNGHTNYAQKFQGRATLTEDTSTSTAYMELSSLRSEDTAVYYCARDYSDYYFDYWGQGTLLTVSS VL: DIQMTQSPSSLSASVGDRVTITCRASQDINTYLNWYQQKPGKAPKLLIYYTSRLHSGVPSRFSGSGSGTDYTLTISSLQPEDFATYYCQQGNTLPWTFGQGTKLEIK , its EC50 was 1.2
